Procedure Text: protein stability index of a GFP-peptide fusion (GPS, HEK-293T) (PSI 1-6); higher = more stable;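 also: 24-mer peptide tiles fused after GFP, lentivirally expressed, FACS-sorted into six equal bins by GFP/DsRed ratio, decoded by Illumina sequencing, PSI is the read-weighted mean bin number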
Test Context: treatment: MLN4924 1 uM, 8 h; c terminus: a fixed tail appended
Outcome Measure: protein stability index

TSFALERNLRTQQEIEDKMKGFSF [C8orf76] = 3.53

Quick batch: protein stability index for everything below.
1. SAAGHLDVVRSLLRRGASVNRTTR [FEM1A]
2. GIAILVGSNDRVQGVISQLEDTCK [TRIM55]
3. PAQLSCLPYLEHVGHNHTYNMAPS [NFE2L1]

[3.75, 2.43, 2.96]

---

Procedure Text: protein stability index of a GFP-peptide fusion (GPS, HEK-293T) (PSI 1-6); higher = more stable
Test Context: treatment: MLN4924 1 uM, 8 h; c terminus: a fixed tail appended
Entry flag: True if protein stability index reaches 3; False if it does not.

HILAKNYFSQVPVLASFILDDGEI [IQUB] = False

Below: the item to evaluate.
hey, is protein stability index for this one >= 3? NLDANLAFASFTSGVVRIWDLRDQ [TLE6]
False

---

Procedure Text: protein stability index of a GFP-peptide fusion (GPS, HEK-293T) (PSI 1-6); higher = more stable
Test Context: treatment: DMSO; c terminus: a fixed tail appended
Give protein stability index for every item shown.
Answers are plain numbers.

QSSFNSLQRVPSYDSFDSEDYPAA [ETS1] = 4.92
SDDNAKLPCFNGRVVSWLVSAEGS [DVL3] = 3.07
NQGTQITVEDLFYNIATRRKALKN [MLH1] = 3.29
EQHGKKVPTVSRPYSFIEFDTFIQ [SEC22B] = 2.75
KLPRKVLQHVSEPQAHQESTRGAA [SPACA9] = 4.59
DPSTGCYMYYFQYLSKTYCVDATR [KMT5A] = 2.25
MTKAGSKGGNLRDKLDGNELDLSL [LRRC59] = 4.63
EDSLGCLTADTKEVTASQEARGLR [IRX6] = 5.34

Quick batch: protein stability index for everything below.
1. MHDAFEPVPILEKLPLQIDCLAAW [VPS39]
2. FVLLCFAIGALLVCYHYYADWFMS [TMEM40]
3. QTDHIKGIRQITSDDFCTFQMVLE [GFOD1]
4. LPHDFIDSLEKTDDDKYKITLKYP [NLN]
5. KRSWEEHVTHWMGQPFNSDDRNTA [DLC1]

[2.56, 2.16, 2.69, 3.7, 3.12]

---

Procedure Text: protein stability index of a GFP-peptide fusion (GPS, HEK-293T) (PSI 1-6); higher = more stable
Test Context: treatment: MLN4924 1 uM, 8 h; c terminus: a fixed tail appended
Give protein stability index for every item shown.
Give bare numbers.

GEHKDRIERQWGNLLGEGQHKCDE [ZSCAN9] = 4.93
KRYDGLKYDVKKVEEVVYDLSIRG [TSN] = 3.29
SLQPQQQQQRQRPPRPPPRGTPPR [N4BP2L1] = 4.16
LVEDMQRELGRLRQQVTNHGRGTE [ZNF263] = 3.55
GGPGGPGSDKQQQQQHIECVVCGD [NR2F2] = 5.02
NGDDMFVTFAAMQAQQGRSSLVWL [MCOLN1] = 2.83

Then this sequence:
Lab note: measured protein stability index of SLCKALAQKLTIRLSSRYRYGQLI [TRIP13] was 3.16

---

Procedure Text: protein stability index of a GFP-peptide fusion (GPS, HEK-293T) (PSI 1-6); higher = more stable
Test Context: treatment: MLN4924 1 uM, 8 h; c terminus: a fixed tail appended
Give protein stability index for every item shown.
Numbers only.

// solved cases for protein stability index follow
DEGFIKEEERPLPEKEYQRQVWLL [KCNA1] = 3.73
EDSRTSKESMSEADRAQKMDGESE [EHMT1] = 5.64

Quick batch: protein stability index for everything below.
1. APTKPHDYRQEQPETFWIQRAPQL [SPAG8]
2. LPAEVAGLSQVLLRGGGQVLLGWT [POMT2]

3.73
2.26

---

Procedure Text: protein stability index of a GFP-peptide fusion (GPS, HEK-293T) (PSI 1-6); higher = more stable
Test Context: treatment: MLN4924 1 uM, 8 h; c terminus: a fixed tail appended
Would you mind classing the entries by protein stability index? Ranges: low (below 3), mid (3 to below 4), high (4 or more)

LQTSLENGTRVQEEPELVFTLGDC [FKBP8] = high
NDYIVPRHCPELAEMSRVSIRILD [HNF4A] = mid
PANCPACREPSPKMDFKTNILLKN [TRIM43] = mid

Which class holds VLGGRRLRRAWFSWPRASPASGAS [SCNN1D] ?
low

Which class holds IVSILPYFITLGTDLAQQQGGGNG [KCNA4] ?
low

Which class holds KKPPVTFAEKGELRKSIFSESRKP [TRIM29] ?
high

---

Procedure Text: protein stability index of a GFP-peptide fusion (GPS, HEK-293T) (PSI 1-6); higher = more stable
Test Context: treatment: DMSO; c terminus: a fixed tail appended
Entry flag: rule met if protein stability index reaches 4; rule not met if it does not.

Worked examples, 3 sequences total:
KQRLMENTEDWRPRPGTGQSRSFR [PDLIM7] = rule met
IVMCVQIKCFHEIITIGYNVYHSY [CDS2] = rule not met
LVEDMQRELGRLRQQVTNHGRGTE [ZNF263] = rule not met

hey, is protein stability index for this one >= 4? QRLLNTPRRKKLKSTSKYIYQTLF [GMCL1]
rule not met

---

Procedure Text: protein stability index of a GFP-peptide fusion (GPS, HEK-293T) (PSI 1-6); higher = more stable
Test Context: treatment: DMSO; c terminus: a fixed tail appended
Would you mind classing the entries by protein stability index? Ranges: small value = under 3, mid value = from 3 up to 4, large value = 4 and over

Which class holds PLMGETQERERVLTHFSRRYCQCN [PSD2] ?
mid value

Which class holds STSSSFPSSFPSSSSSSSSSCYPL [MAGEA10] ?
mid value

---

Give protein stability index for every item shown.
Procedure Text: protein stability index of a GFP-peptide fusion (GPS, HEK-293T) (PSI 1-6); higher = more stable
Test Context: treatment: DMSO; c terminus: a fixed tail appended
Numbers only.

// solved cases for protein stability index follow
LMQLQDIQYLTENIWASQSVLSAC [IQUB] = 2.67
GTLLFYIGGHLVRDNDHPDHSSRE [FUT8] = 2.3
PGGGGSPGACPALGTKSCSSSCAV [RTN3] = 3.73
APGTGPAQTELLCCLVKMESLEPD [FANCE] = 3.28
VYSWPKNKKNILLRLLREEEYVAP [TRAF3IP2] = 2.11
DEGFIKEEERPLPEKEYQRQVWLL [KCNA1] = 3.8

Quick batch: protein stability index for everything below.
1. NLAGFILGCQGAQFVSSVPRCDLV [FAM189A2]
2. KQTREQLHSISDSVLFLQEFGALM [TRIM29]

1: 2.66; 2: 2.44

Quick batch: protein stability index for everything below.
1. EKPYGCIDCGKAFSQKSCLVAHQR [ZNF649]
2. FQTLQAIVSHFQKLFDVPSLNGVY [CEP70]
3. LRTIPSPYPASKADIPSVAFSSRL [DCAF4]
4. ELGSESQGASESQAPGEENLLGEA [HDAC6]

2.81
2.36
2.79
5.63

Lab note: measured protein stability index of KKPPVTFAEKGELRKSIFSESRKP [TRIM29] was 4.13

---

Give protein stability index for every item shown.
Procedure Text: protein stability index of a GFP-peptide fusion (GPS, HEK-293T) (PSI 1-6); higher = more stable
Test Context: treatment: DMSO; c terminus: a fixed tail appended
Give bare numbers.

// solved cases for protein stability index follow
TTIEDEDAKARKQEIIKTTEQLIE [CAMK2B] = 5.14
PGAFGTILTFLRAGKLRLLREMCA [KCNG1] = 2.84
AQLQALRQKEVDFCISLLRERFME [INTS3] = 2.61
LQGFDQLRLEGLLCDVTLMPGDTD [KLHL13] = 3.61
GIGHKVDAVFMKDGFFYFFHGTRQ [MMP1] = 2.4

Quick batch: protein stability index for everything below.
1. GGPGGPGSDKQQQQQHIECVVCGD [NR2F2]
2. EHLEILQKEDVKPYQVNGVNPAYP [ETS1]

5.02
4.1

---

Procedure Text: protein stability index of a GFP-peptide fusion (GPS, HEK-293T) (PSI 1-6); higher = more stable
Test Context: treatment: MLN4924 1 uM, 8 h; c terminus: a fixed tail appended
Outcome Measure: protein stability index
Give bare numbers.

// solved cases for protein stability index follow
RMSEDKPQDYKKRLSVELTSSLFR [CTNNB1] = 3.42
PGRSALIVAVLCYINLLNYMDRFT [SPNS1] = 3.44
AKEDGKADTKKRHTPRGHAESTSN [SMOC2] = 5.45
VEVDAAPAVDLNQVLNETRNQYEA [KRT33B] = 5.17
VVKQFVTGIIDSLTISPKAARVGL [MATN2] = 3.15
ELVPKQPQKRKPQEQLLECNKLCG [SLC2A12] = 4.18
ASKMESTIKPRRVEPVCSGLQAQI [CHCHD6] = 3.6
GKELAGTMDGEGTLFQTESPQSGS [PBXIP1] = 5.38

Quick batch: protein stability index for everything below.
1. KVFLHERELWLKFHEVGTEMIITK [TBX5]
2. IRLVCSRGNRLKTTSWGLLSLGAL [SCNN1D]
3. MESLISAPLVKTLEKEEEKDLVMY [CDC25B]
4. TVSSPIPYTPSPSSSRPISPGLSY [CCDC6]
5. SKLCTSYSHSSTRDGRRDRYSSDT [GOSR1]

2.33
3.07
4.61
3.61
4.18

Quick batch: protein stability index for everything below.
1. EEKSVKNTSIRVADFGSATFDHEH [CLK3]
2. SLEMDSDEDDSEELEEDDGHGAEQ [EHMT1]

[5.07, 5.62]

Quick batch: protein stability index for everything below.
1. FVLLCFAIGALLVCYHYYADWFMS [TMEM40]
2. GHGEPDVLKDELQLYGDAPGEVVP [TMEM40]
3. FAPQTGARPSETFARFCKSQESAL [DNAAF3]

1. 2.19
2. 5.35
3. 2.76

Quick batch: protein stability index for everything below.
1. SEEEKELYLNLALHLASDFFLKHP [PDS5B]
2. KVWSLTGQVAEDRFPESHLPIQTP [TLE6]
3. GRPIPGTSTRYEQPKCDNTARAHP [SMOC2]
4. MVFSGLCPLLLGSVMAIERCIGVT [PTGFR]
5. ESAFKLSTGTSRWPSAKSAGWTLA [SCNN1D]

1. 2.18
2. 3.47
3. 4.78
4. 3.37
5. 3.03

Quick batch: protein stability index for everything below.
1. NIYENGDVCISILHPPVDDPQSGE [UBE2R2]
2. LIGDTLLVAPVLEPGKQERDVYLP [MYORG]
3. LSAEPGWQAKREEEEEEEEEAEAG [CHGA]
4. EHLEILQKEDVKPYQVNGVNPAYP [ETS1]

[4.55, 3.03, 5.4, 4.05]
